// data source = patent US20210230570A1

# MEASURED TARGET: T1, Factor VIIIa (recombinant FVIII, Kogenate FS, Bayer healthcare, activated with alpha-thrombin) (UniProt P00451 20-2351, limits assumed)
# T1 construct: also called FVIIIa; cofactor
# T1 sequence (looked up): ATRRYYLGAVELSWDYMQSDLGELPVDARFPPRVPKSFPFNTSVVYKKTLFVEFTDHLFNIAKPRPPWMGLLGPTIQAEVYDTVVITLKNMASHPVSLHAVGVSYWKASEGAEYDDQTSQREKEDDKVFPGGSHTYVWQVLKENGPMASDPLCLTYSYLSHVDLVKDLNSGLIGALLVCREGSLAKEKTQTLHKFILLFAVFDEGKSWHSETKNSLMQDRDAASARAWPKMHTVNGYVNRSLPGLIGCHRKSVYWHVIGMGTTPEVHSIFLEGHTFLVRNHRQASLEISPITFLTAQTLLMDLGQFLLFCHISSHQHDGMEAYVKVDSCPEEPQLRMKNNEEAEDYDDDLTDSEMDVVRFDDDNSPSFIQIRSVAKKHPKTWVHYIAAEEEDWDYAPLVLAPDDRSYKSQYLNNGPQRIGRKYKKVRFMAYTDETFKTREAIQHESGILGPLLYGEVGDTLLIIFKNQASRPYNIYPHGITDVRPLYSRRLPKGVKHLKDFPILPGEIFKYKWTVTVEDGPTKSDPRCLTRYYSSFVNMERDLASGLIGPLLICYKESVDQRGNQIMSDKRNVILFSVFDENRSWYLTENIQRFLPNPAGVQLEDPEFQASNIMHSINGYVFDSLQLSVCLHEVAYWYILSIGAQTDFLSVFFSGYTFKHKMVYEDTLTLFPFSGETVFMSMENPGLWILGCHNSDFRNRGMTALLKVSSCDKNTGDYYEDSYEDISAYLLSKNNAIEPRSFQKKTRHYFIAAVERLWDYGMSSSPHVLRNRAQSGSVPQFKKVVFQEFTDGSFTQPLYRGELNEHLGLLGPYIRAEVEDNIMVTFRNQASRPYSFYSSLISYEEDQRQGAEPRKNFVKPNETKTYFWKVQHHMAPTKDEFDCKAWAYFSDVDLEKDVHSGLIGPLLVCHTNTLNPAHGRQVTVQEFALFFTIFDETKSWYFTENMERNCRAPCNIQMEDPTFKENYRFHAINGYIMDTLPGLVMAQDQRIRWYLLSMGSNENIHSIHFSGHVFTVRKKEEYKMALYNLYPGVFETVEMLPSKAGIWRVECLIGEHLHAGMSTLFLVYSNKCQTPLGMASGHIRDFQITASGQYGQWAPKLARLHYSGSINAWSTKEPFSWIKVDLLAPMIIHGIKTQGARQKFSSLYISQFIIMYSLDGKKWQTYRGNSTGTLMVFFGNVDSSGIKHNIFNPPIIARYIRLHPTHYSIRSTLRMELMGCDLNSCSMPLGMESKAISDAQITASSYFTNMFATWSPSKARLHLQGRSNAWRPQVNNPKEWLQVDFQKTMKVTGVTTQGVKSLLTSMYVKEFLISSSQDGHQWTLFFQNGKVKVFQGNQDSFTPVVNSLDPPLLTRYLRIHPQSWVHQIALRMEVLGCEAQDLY
# MEASUREMENT DESCRIPTION: same assay; KD-app of Catalyst Biosciences WT FIXa divided by KD-app of the variant
ATTRIBUTE MEASURED: KD-WT/KD-mut (ratio)
Quick reminder: number only, in ratio, skip the unit.

FIXa-R318Y/R338E/R403E/E410N/T412V (enzyme, also called R150Y/R170E/R233E/E240N/T242V (chymotrypsin numbering)) chain 1: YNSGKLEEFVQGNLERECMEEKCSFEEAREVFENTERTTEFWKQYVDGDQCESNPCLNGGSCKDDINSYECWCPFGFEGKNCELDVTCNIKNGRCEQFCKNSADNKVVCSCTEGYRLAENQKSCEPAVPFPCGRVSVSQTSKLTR chain 2: VVGGEDAKPGQFPWQVVLNGKVDAFCGGSIVNEKWIVTAAHCVETGVKITVVAGEHNIEETEHTEQKRNVIRIIPHHNYNAAINKYNHDIALLELDEPLVLNSYVTPICIADKEYTNIFLKFGSGYVSGWGRVFHKGYSALVLQYLRVPLVDRATCLESTKFTIYNNMFCAGFHEGGRDSCQGDSGGPHVTEVEGTSFLTGIISWGEECAMKGKYGIYTKVSEYVNWIKNKVKLT ... 1.7

Now, please, on to the next binder.
Ask: Look at this binder and give its reported KD-WT/KD-mut. FIXa-K228N/K247N/N249S/R318Y/R338E/R403E/E410N (enzyme, also called K63N/K82N/N84S/R150Y/R170E/R233E/E240N (chymotrypsin numbering)) chain 1: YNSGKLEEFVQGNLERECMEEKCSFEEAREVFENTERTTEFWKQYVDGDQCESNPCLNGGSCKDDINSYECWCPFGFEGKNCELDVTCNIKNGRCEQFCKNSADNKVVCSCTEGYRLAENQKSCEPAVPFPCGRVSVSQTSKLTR chain 2: VVGGEDAKPGQFPWQVVLNGKVDAFCGGSIVNEKWIVTAAHCVETGVNITVVAGEHNIEETEHTEQNRSVIRIIPHHNYNAAINKYNHDIALLELDEPLVLNSYVTPICIADKEYTNIFLKFGSGYVSGWGRVFHKGYSALVLQYLRVPLVDRATCLESTKFTIYNNMFCAGFHEGGRDSCQGDSGGPHVTEVEGTSFLTGIISWGEECAMKGKYGIYTKVSEYVNWIKNKTKLT
Reply: 0.9
